tested-on: Human RNR (human M1 subunit and human M2 subunit) (Homo sapiens (Human), UniProt P23921)
Sequence (P23921 whole entry): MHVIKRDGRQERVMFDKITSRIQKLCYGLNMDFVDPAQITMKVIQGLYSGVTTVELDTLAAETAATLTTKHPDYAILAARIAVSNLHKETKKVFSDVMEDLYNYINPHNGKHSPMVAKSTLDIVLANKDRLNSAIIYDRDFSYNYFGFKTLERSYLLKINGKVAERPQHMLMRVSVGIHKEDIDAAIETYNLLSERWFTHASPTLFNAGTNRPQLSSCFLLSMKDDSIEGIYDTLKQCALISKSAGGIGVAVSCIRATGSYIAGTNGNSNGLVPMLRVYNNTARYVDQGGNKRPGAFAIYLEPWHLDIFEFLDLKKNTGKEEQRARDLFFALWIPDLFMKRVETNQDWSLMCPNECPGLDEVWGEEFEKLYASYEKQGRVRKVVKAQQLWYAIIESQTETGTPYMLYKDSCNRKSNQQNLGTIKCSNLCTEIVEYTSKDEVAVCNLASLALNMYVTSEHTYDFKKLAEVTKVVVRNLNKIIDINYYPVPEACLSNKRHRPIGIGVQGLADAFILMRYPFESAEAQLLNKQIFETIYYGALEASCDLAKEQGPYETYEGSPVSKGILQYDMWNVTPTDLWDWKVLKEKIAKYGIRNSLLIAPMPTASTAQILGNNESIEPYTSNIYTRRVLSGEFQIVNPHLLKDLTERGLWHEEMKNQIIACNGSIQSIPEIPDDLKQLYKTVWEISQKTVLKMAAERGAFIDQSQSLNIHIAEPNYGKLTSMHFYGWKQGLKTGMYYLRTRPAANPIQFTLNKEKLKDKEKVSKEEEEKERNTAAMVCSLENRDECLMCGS
test-description: Human RNR inhibition effect (formation of dCDP from CDP, HPLC)
Assay type: biochemical
condition-notes: human M1 and M2 subunits; formation of dCDP from CDP, 10 μM CDP, 37° C. for 30 minutes; read-out: RNR Enzyme inhibitory activity IC50
readout-kind: pIC50
One number for each entry, as −log10 of the molar value.

Lookup: pIC50 / Human RNR (human M1 subunit and human M2 subunit) (Homo sapiens (Human), UniProt P23921) / `C=C(c1c(F)ccc(C)c1C)[C@H](NS(=O)(=O)c1ccc(Cl)cc1OC)c1n[nH]c(=O)o1`
6.22
